# credit: patent USRE49495E1

Molecular target: human FcRn (Biorbyt, cat. no. orb 84388) (human) (UniProt P55899)
Test: SPR Biacore 2000, FcRn on CM5 chip, pH 6.0, 1:1 Langmuir; sample (0) before stability test
measured_quantity: pKd
Friendly reminder that pKd comes from taking -log10 of the concentration in mol/L.

Ask | Quick check: pKd of Z17348 (designed binder) MGSSHHHHHHLQAEAKYAKEQDAAAHEIRWLPNLTFDQRVAFIHKLARQPEQSSELLSEAKKLSESQAPK ?
Reply | 8.26
